Assign VIM1 KP599644 MITC95 to each entry below.
- Tested on: Klebsiella pneumoniae expressing VIM-1 (IHMA599644)
- procedure_details: Antibiotic potentiation activity: synergistic concentration (MITC95) with imipenem, growth by OD600
- Assay type: cell-based
- protocol_conditions: 95% inhibition of bacterial growth, strain IHMA599644
Enter your answer as a number in µM; do not include the unit.

Reported VIM1 KP599644 MITC95, molecule CC(C)C[C@H](C(=O)O)[C@H](Cc1ccc(-c2ccc(S(N)(=O)=O)cc2)cn1)c1nn[nH]n1 [Example 175] : ____
50

Same again, this time with Cc1cc(C[C@H](c2nnn[nH]2)[C@@H](C(=O)O)C(C)C)ccc1C1=CCNC1 [Example 68]
6.2

Same again, this time with CCCCC[C@H](C(=O)O)[C@H](Cc1ccc2c(c1)OCO2)c1nnn[nH]1 [Example 39]
100

Same read-out for Cc1cc(C[C@H](c2nnn[nH]2)[C@@H](C(=O)O)C(C)C)ccc1C1CCNC1 (stereo partly drawn) [Example 110] ?
6.2

And what about the molecule CCC[C@H](C(=O)O)[C@H](Cc1ccc(-c2ccncc2)cc1)c1nn[nH]n1 [Example 198] ?
18.8

Likewise for CC(C)C[C@H](C(=O)O)[C@H](Cc1ccc(-c2ccc(N)nc2)nc1)c1nn[nH]n1 [Example 176] ?
25

Could you do the same for CC(C)C[C@H](C(=O)O)[C@H](Cc1cc(F)cc(Br)c1)c1nnn[nH]1 [Example 24] , please?
12.5

Likewise for CC(C)C[C@H](C(=O)O)[C@H](Cc1ccc(C2CCNCC2)nc1)c1nnn[nH]1 [Example 103] ?
18.8

Also CCC[C@H](C(=O)O)[C@H](Cc1ccc(NC(C)CN)cc1)c1nn[nH]n1 (stereo partly drawn) [Example 222] , if possible.
25

CCC[C@H](C(=O)O)[C@H](Cc1ccc(NCC2CCCN2CC)cc1)c1nn[nH]n1 (stereo partly drawn) [Example 215] , same question.
50

Same question, Nc1ccc(-c2ccc(C[C@H](c3nnn[nH]3)[C@@H](C(=O)O)C3CCCC3)cc2)cn1 [Example 72] this time
12.5

CC(C)C[C@H](C(=O)O)[C@H](Cc1cnc(NCCO)s1)c1nnn[nH]1 [Example 137] ?
37

Next up: CCC[C@H](C(=O)O)[C@H](Cc1ccc(-c2ccc(C(C)(C)O)nc2)cc1)c1nn[nH]n1 [Example 213]
75

Also CCC[C@H](C(=O)O)[C@H](Cc1ccc(-c2ccc(CN)cc2)nc1)c1nnn[nH]1 [Example 96] , if possible.
18.8

Also CCC[C@H](C(=O)O)[C@H](Cc1ccc(-c2cnc(N(C)C)nc2)nc1)c1nnn[nH]1 [Example 163] ?
125

Another molecule to check: CCC[C@H](C(=O)O)[C@H](Cc1ccc(N)cn1)c1nnn[nH]1 [Example 111]
5.5

Moving on to the next molecule: CC(C)[C@H](C(=O)O)[C@H](Cc1ccc(C2=CCNC2)cn1)c1nnn[nH]1 [Example 65]
12.5

Same again, this time with CCC[C@H](C(=O)O)[C@H](Cc1ccc(-c2ccc(N)nc2)cc1)c1nn[nH]n1 [Example 200]
18.8

Follow-up entry: CCC[C@H](C(=O)O)[C@H](Cc1cccc(Br)c1)c1nn[nH]n1 [Example 16]
9.4

Similarly, CC[C@H](C(=O)O)[C@@H](c1nnn[nH]1)[C@@H](C)c1ccccc1 [Example 29] ?
200

Next entry: CC(C)[C@H](C(=O)O)[C@H](Cc1ccc(OCC(N)CO)nc1)c1nnn[nH]1 (stereo partly drawn) [Example 142]
25

Entry to check: CCC[C@H](C(=O)O)[C@H](Cc1ccc(NCCS(N)(=O)=O)cn1)c1nnn[nH]1 [Example 149]
18.8

Same lookup for CCC[C@H](C(=O)O)[C@H](Cc1ccc2ncc(N)cc2c1)c1nnn[nH]1 [Example 148] , please.
25

* * *

- subject_of_test: VIM-1 (Pseudomonas aeruginosa, UniProt A0A0F7KYQ8)
- procedure_details: Enzyme activity: determination of IC50, fluorescence assay with CCF2-FA substrate
- Format: biochemical
- protocol_conditions: enzyme 30 pM, CCF2-FA 1.25 μM, 2 hours at 25° C.; read-out: VIM1 IC50
For each record, write down the corresponding IC50.
Reply numerically in nM, unit not repeated.

Fill in: IC50 of CCC[C@H](C(=O)O)[C@H](Cc1ccc(NCCS(N)(=O)=O)cn1)c1nnn[nH]1 [Example 149] is ___
98

Record: CC(C)C[C@H](C(=O)O)[C@H](Cc1ccccc1)c1nnn[nH]1 [Example 7]
3.3

Item: O=C(O)[C@@H](C1CCCC1)[C@H](Cc1ccc(C2CCNCC2)cc1)c1nnn[nH]1 [Example 80]
2.2

Subsequent entry: CCC[C@H](C(=O)O)[C@H](Cc1ccc(-c2ccc(CN)cc2)nc1)c1nnn[nH]1 [Example 96]
9

What do we get for CCC[C@H](C(=O)O)[C@H](Cc1ccccc1C(N)=O)c1nnn[nH]1 [Example 47] ?
73

Please answer likewise for CCC[C@H](C(=O)O)[C@H](Cc1ccc(-c2cccc(CN)c2)cc1)c1nn[nH]n1 [Example 210]
8.2

Moving on to CC(C)C[C@H](C(=O)O)[C@H](Cc1cnc(N)s1)c1nnn[nH]1 [Example 116]
4.4

Would you mind doing Nc1ccc(-c2ccc(C[C@H](c3nnn[nH]3)[C@@H](C(=O)O)C3CCCC3)cc2)cn1 [Example 72] as well?
3.8

Can you handle CC(C)[C@H](C(=O)O)[C@H](Cc1cccc(Br)n1)c1nnn[nH]1 [Example 92] next?
28

Follow-up item: Cc1ccc(C[C@H](c2nn[nH]n2)[C@H](CC(C)C)C(=O)O)cc1 [Example 53]
5.8

// next record CCC[C@H](C(=O)O)[C@H](Cc1ccc(-c2ccc(C3(O)CNC3)cc2)nc1)c1nnn[nH]1 [Example 159]
23

And what about the compound CCC[C@H](C(=O)O)[C@H](Cc1ccc(N2CCN(C)CC2)cc1)c1nn[nH]n1 [Example 231] ?
69

Let us now turn to CC(C)[C@H](C(=O)O)[C@H](Cc1ccc(C2=CCNCC2)cc1)c1nnn[nH]1 [Example 59]
10

Would you mind doing CCCC[C@@H](C(=O)O)[C@@H](Cc1ccc(-c2c(C)nn(C)c2C)cc1)c1nn[nH]n1 [Example 185] as well?
740

Repeat for the following compound: CC(C)C[C@H](C(=O)O)[C@H](Cc1ccc(-c2ccc(CO)cc2)cn1)c1nn[nH]n1 [Example 171]
56

Request: CC(C)C[C@H](C(=O)O)[C@H](Cc1ccc(CN)c(F)c1)c1nnn[nH]1 [Example 56]
10

Proceed to CC(C)=CCC[C@@H](C(=O)O)[C@H](Cc1ccccc1)c1nnn[nH]1 [Example 14]
37

Likewise for CCCC(C)[C@H](C(=O)O)[C@H](Cc1ccccc1)c1nnn[nH]1 (stereo partly shown) [Example 18] ?
36

Could you do the same for CC(C)C[C@H](C(=O)O)[C@H](Cc1ccc(NCCO)nc1)c1nnn[nH]1 [Example 134] , please?
6.6

Another compound: CCC[C@H](C(=O)O)[C@H](Cc1cccc(N)n1)c1nnn[nH]1 [Example 117]
370

Try this compound too: CCC[C@H](C(=O)O)[C@H](Cc1ccc(C2=CCCN(C)C2)cc1)c1nnn[nH]1 [Example 243]
3.8

* * *

- subject_of_test: UniProt:C7C422
- Sequence (C7C422 29-270, looked up, species assumed): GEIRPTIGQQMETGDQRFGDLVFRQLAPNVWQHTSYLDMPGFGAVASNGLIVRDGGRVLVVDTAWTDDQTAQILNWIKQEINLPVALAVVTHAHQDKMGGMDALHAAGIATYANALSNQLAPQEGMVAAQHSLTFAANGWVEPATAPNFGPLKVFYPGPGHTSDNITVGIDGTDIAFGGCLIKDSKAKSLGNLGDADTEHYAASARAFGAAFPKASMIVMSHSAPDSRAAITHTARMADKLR
- procedure_details: Enzyme activity: determination of IC50, fluorescence assay with CCF2-FA substrate
- Type: biochemical
- protocol_conditions: enzyme 1 pM, CCF2-FA 1.25 μM, 2 hours at 25° C.; read-out: NDM1 IC50
For each of the compounds below, state its pIC50.
Just so you know, pIC50 here is -log10 of the concentration in molar units; reply with that number alone.

What value of pIC50 has been reported for the following compound? CCC[C@H](C(=O)O)[C@H](Cc1ccc(-c2cnc(NC(C)=O)nc2)nc1)c1nn[nH]n1 [Example 160]
7.30

Further, for CC(C)C[C@H](C(=O)O)[C@H](Cc1ccc(Br)cc1)c1nnn[nH]1 [Example 25] ?
7.49

Please do the same for CCC[C@H](C(=O)O)[C@H](Cc1ccc(-c2c(C)nn(C)c2C)nc1)c1nnn[nH]1 [Example 158] as well.
7.85

Let us now turn to CCC[C@H](C(=O)O)[C@H](Cc1ccc(-c2ccc(N3CCNCC3)nc2)cc1)c1nn[nH]n1 [Example 199]
7.32

Thanks! And CCC[C@H](C(=O)O)[C@H](Cc1ccc(S(C)(=O)=O)cc1)c1nn[nH]n1 [Example 49] ?
7.16

Next compound up: CC(C)[C@H](C(=O)O)[C@H](Cc1ccc(C2=CCNC2)nc1)c1nnn[nH]1 [Example 64]
6.52

Next compound: CCC[C@H](C(=O)O)[C@H](Cc1ccc(-c2cnc(N)nc2)nc1)c1nnn[nH]1 [Example 161]
7.52

And what about the compound CCC[C@H](C(=O)O)[C@H](Cc1ccc(NCc2cc(OC)cc(OC)c2)nc1)c1nnn[nH]1 [Example 144] ?
7.80

Similarly, CCC[C@H](C(=O)O)[C@H](Cc1ccc2ncc(N)cc2c1)c1nnn[nH]1 [Example 148] ?
7.60

And for CC(C)C[C@H](C(=O)O)[C@H](Cc1ccc(NCCO)nc1)c1nnn[nH]1 [Example 134] ?
7.06
